Sourced from a melting point compilation (Tetko et al.; mined from patent text by program, amines drawn as free bases though some values may be those of a salt)

Reported values of melting point for individual entries

Below, 3 compounds whose answers are already recorded.
Compound: O=C(CC(=O)c1ccc(F)cc1)c1ccc(F)cc1
melting point: 70 to 72 °C
//
Compound: O=C(NC(=O)N1CCC(Cc2ccc(F)cc2F)CC1)c1ccc(O)cc1
melting point: 168 °C
//
Compound: CC1=C(C(=O)OCc2ccccc2)C(c2ccccc2C(F)(F)F)c2c(ccnc2OC(C)C)N1 (stereo not given)
melting point: 131 °C

### Prompt Which measured melting point value corresponds to "COc1nc2ccnn2c2ncccc12" ?
### Response 154 °C

### Prompt Also CC1CC(=O)NN=C1c1ccc(NC(=NC#N)NCc2ccccn2)cc1 (stereo not given) ?
### Response 212 to 214 °C

### Prompt Also "Cc1cccc(-c2nc(N)sc2-c2ccc(F)c(-c3cnn(C)c3)c2)n1" ?
### Response 153 to 155 °C

### Prompt Also "COc1c(F)cc2c(c1-c1ccc(C[C@H](NC(=O)c3c(Cl)cccc3Cl)C(=O)O)cc1)OCO2" ?
### Response 198 to 199 °C

### Prompt Also "N#Cc1c(Cl)c(Cl)n(CCl)c1-c1ccc(Cl)c(Cl)c1" ?
### Response 153 to 156 °C

### Prompt Also "CN(C(=O)c1ccc(-c2ccccc2)cc1)c1ccccc1" ?
### Response 99 to 102 °C

### Prompt Also "ON=C1CCSc2sccc21" ?
### Response 123 to 124 °C

### Prompt Also "Cc1cccc(-c2cc3cnc(N)nc3nc2NC(=O)NC(C)(C)C)c1C" ?
### Response 326 to 330 °C

### Prompt Also "Cc1nccn1-c1nc(-c2ccc(Cl)cc2)c(CCC(=O)O)o1" ?
### Response 195 to 197 °C

### Prompt Also "N#Cc1ccc(Nc2nc(Oc3c(Br)cc(Br)cc3Br)ccc2[N+](=O)[O-])cc1" ?
### Response 188 to 191 °C

### Prompt Also "CSCc1cn(C)c2ccc(Cl)cc2c1=O" ?
### Response 148 to 150 °C

### Prompt Also CCOC(=O)C(c1ccc(NC(=O)OC(C)(C)C)cc1)N(C)C(C)C (stereo not given) ?
### Response 87 to 88 °C

### Prompt Also "Cn1cc(-c2cccc(C(F)(F)F)c2)c(=O)c(-c2ccccc2Cl)c1" ?
### Response 191 to 193 °C

###

Reported values of melting point for individual entries

Molecule: Cc1c(C(=O)O)oc2c(C(C)(C)C)ccc(O)c12
Readout Kind: melting point
Measurement: 219 to 222 °C
//
Molecule: Cc1noc(NS(=O)(=O)c2cccc(Cl)c2C)c1Br
Readout Kind: melting point
Measurement: 185 to 187 °C
//
Molecule: Cc1ncccc1C(=O)NCC1CCN(C[C@H]2COc3ccc(Cl)cc3O2)CC1
Readout Kind: melting point
Measurement: 133 to 136 °C
//
Molecule: COc1ccc(C(C[N+](=O)[O-])SC(=S)N(C)C)cc1OC (stereo not given)
Readout Kind: melting point
Measurement: 108 to 110 °C
//
Molecule: C=C(CO)C[C@](C)(O)[C@H]1CC[C@H]2[C@@H](O[Si](C)(C)C(C)(C)C)CCC[C@@]21C
Readout Kind: melting point
Measurement: 95 °C

### Prompt Which measured melting point value corresponds to "COc1ccc(/C=C(\C#N)c2ccc(O)cc2)cc1OC1CCCC1" ?
### Response 138 to 140 °C

### Prompt Also "COc1cc(N)c(Cl)cc1C(=O)NCC1CCN(CCCCCCC(=O)c2ccccc2)CC1" ?
### Response 128 to 130 °C

### Prompt Also "Cc1noc(C)c1-c1ccc2c(c1)ncc1ncn(-c3ccccc3C(C)(C)C)c12" ?
### Response 216 °C

### Prompt Also "COc1cccc(-c2cn(C)cc(-c3cccc(C(F)(F)F)c3)c2=O)c1OC" ?
### Response 153 to 155 °C

### Prompt Also O=C1OC(c2ccccc2)(c2ccccc2)C2CN(S(=O)(=O)/C=C/c3ccc(F)cc3)CCN12 (stereo not given) ?
### Response 248 to 249 °C

###

Reported values of melting point for individual entries

### Prompt Which measured melting point value corresponds to "CCOCc1nc2c(N)nc3cc(-c4cccnc4)ccc3c2n1CC1CCN(C(=O)OC(C)(C)C)CC1" ?
### Response 197 to 198 °C

### Prompt Also CC1CC(C)CN(c2nccc(Oc3ccc(NC(=O)c4cc(F)cc(N5CCOCC5)c4)c4ccccc34)n2)C1 (centres undefined) ?
### Response 102 to 104 °C

### Prompt Also CC(=O)Nc1ccc(S(=O)c2ccc(Br)cc2)cc1 (centres undefined) ?
### Response 190 to 191 °C

### Prompt Also CC(C)(C)C(=O)O[C@H]1[C@H](N2CCCC2)c2cc(C#N)ccc2OC1(C)C (relative stereo) ?
### Response 109 to 110 °C

###

Readout Kind: melting point

Below, 8 molecules whose answers are already recorded.
Molecule: CCCCc1nc(Cl)c(COC(C)=O)n1Cc1ccc(-c2cccc(C(=O)O)c2)cc1
melting point: 172 to 173 °C
--
Molecule: CS(=O)(=O)Nc1cc2oc(NC=O)cc(=O)c2cc1Oc1ccccc1
melting point: 214 to 216 °C
--
Molecule: O=C(Nc1ccc2nc(S)[nH]c2c1)C(=O)N1CCC(Cc2ccccc2)CC1
melting point: 277 to 281 °C
--
Molecule: CC1(C)CCC(C)(C)c2cc(C(C(N)=O)C(=O)Nc3ccc(C(=O)O)cc3)ccc21 (stereo not given)
melting point: 112 to 113 °C
--
Molecule: CCCc1cc(Cl)c(O)c2c(C)c(Cc3ccc(OC)cc3)oc12
melting point: 99 to 100 °C
--
Molecule: C=C1N(C)C(=O)OC12CCN(Cc1ccccc1)CC2
melting point: 96 to 97 °C
--
Molecule: CC(CO)c1ccc2c(c1)Cc1ccccc1O2 (stereo not given)
melting point: 86 to 89 °C
--
Molecule: Cc1cc(C2=CCN=C(CCCC(O)c3ccc(F)cc3)C2)on1 (stereo not given)
melting point: 116 to 119 °C

### Prompt Which measured melting point value corresponds to COc1cccc2c(CCN(CC3CC3)C3COc4c(F)ccc(C(N)=O)c4C3)coc12 (stereo not given) ?
### Response 130 to 138 °C

### Prompt Also "Cc1nc2ccc(NS(=O)(=O)c3cccc(Cl)c3C)cc2o1" ?
### Response 127 to 128 °C

###

Reported values of melting point for individual entries

Below, 8 compounds whose answers are already recorded.
Compound: Cc1ccccc1N1CCN(CCc2ccc(N3CCCNC3=O)cc2)CC1
Measurement: 127 to 128 °C

Compound: OCc1cccnc1Nc1cccc(C(F)(F)F)c1
Measurement: 102 °C

Compound: Cc1[nH]c(-c2ccccc2)c(N)c1C(=O)c1ccccc1
Measurement: 203 to 205 °C

Compound: N#Cc1ccc(-c2ccco2)cn1
Measurement: 115 to 116 °C

Compound: COC(=O)C(C(=O)OC)C(Cc1cc(Cl)ccc1[N+](=O)[O-])c1ccc(OC)cc1 (stereo unspecified)
Measurement: 117 to 120 °C

Compound: O=C(O)c1ccc2c(c1)S(=O)(=O)N=C(n1ccnc1)N2
Measurement: > 300 °C

Compound: CC(C(=O)NCCN(C)C)c1cccc(C(=O)c2cc3ccsc3s2)c1 (stereo unspecified)
Measurement: 160 °C

Compound: Cc1c(C)c(N2CCN(c3ccc(C#N)cc3)CC2)c(C)c2c1OC(C)(C)C2
Measurement: 255 to 257 °C

### Prompt Which measured melting point value corresponds to "O=C(O)c1csc(-c2ccccc2O)n1" ?
### Response 268 to 269 °C

### Prompt Also "COc1ccc(CNC(=O)C(C)=NNc2ccc(Cl)cc2)cc1" ?
### Response 156 to 158 °C

### Prompt Also "COc1ccc(C(=O)Nc2ccc(Cl)c(Cl)c2)cc1NCc1cccs1" ?
### Response 178 to 180 °C

###

Readout Kind: melting point

Below, 2 compounds whose answers are already recorded.
Compound: COC(=O)CNc1cccc(C#N)c1
melting point: 91.5 to 92.5 °C

Compound: CCC(=O)c1c(O)c(CNC(C)=O)cc2c1CCCC2
melting point: 136 to 140 °C

### Prompt Which measured melting point value corresponds to CC(CC(C(=O)N(C)C)(c1ccccc1)c1ccccc1)N1CCC(NCc2ccccc2)C(O)C1 (stereo unspecified) ?
### Response 134 °C

### Prompt Also "Cc1nc(Cc2ccccc2N)n[nH]1" ?
### Response 143 to 145 °C

### Prompt Also O=C(OCC1CO1)c1cccc(C(=O)OCC2CO2)c1 (stereo unspecified) ?
### Response 60 to 65 °C

### Prompt Also "CCOC(=O)C(F)(F)c1ccc(NC(=O)c2ccc3c(c2)C(C)(C)CCC3(C)C)cc1" ?
### Response 183 °C

### Prompt Also CCCCCCCC1OC1CO (stereo unspecified) ?
### Response 50 to 51 °C

### Prompt Also "CC(C)(C)C(=O)C=Cc1cnc2ccccc2c1" ?
### Response 146 to 148 °C

### Prompt Also "CCCCc1nc2c(C)cnc(C(=O)OC)c2n1Cc1ccc(-c2ccccc2-c2nnn[nH]2)cc1" ?
### Response 149 to 151 °C

### Prompt Also "NC(=N[N+](=O)[O-])N1CCN(Cc2ccc(Cl)nc2)C1" ?
### Response 170 to 174 °C

### Prompt Also "FC(F)Sc1nc2ncccc2s1" ?
### Response 41 to 43 °C
